# test target: T1, PUF4 RNA-binding domain (Saccharomyces cerevisiae, UniProt P25339 537-888)
# T1 sequence: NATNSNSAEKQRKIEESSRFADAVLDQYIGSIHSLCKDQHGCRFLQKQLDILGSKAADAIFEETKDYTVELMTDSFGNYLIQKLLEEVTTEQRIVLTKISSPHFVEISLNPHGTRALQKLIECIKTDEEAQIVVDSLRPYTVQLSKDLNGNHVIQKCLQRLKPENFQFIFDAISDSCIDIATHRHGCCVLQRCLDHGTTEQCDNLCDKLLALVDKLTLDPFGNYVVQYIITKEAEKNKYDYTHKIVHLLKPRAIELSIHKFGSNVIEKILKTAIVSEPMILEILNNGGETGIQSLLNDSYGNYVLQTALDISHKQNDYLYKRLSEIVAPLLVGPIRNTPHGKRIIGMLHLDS
# run description: Mg; RNA-MaP; 20 mM Na-HEPES pH 7.4, 30 mM KOAc, 0.75 mM MgCl2, 0.1% Tween-20, 5% glycerol, 0.1 mg/mL BSA, 2 mM DTT; 25 C; 0.0125-409.6 nM protein
# experimental conditions: tags: N-His6-TEV cleaved; C-SNAP kept, Cy3B-labelled; label: tethered on chip by stalled RNA polymerase

{"binder": "Ic_S2_P4E.1_K4.1_C4.1_H4.1_A4.1_[T5C]_[A6T]_F4.1_[A9C]_T4.1 (ssRNA) RNA: UUUGAUUAAUAUGAUAUCGUUCUUUCUUGUACUUUCUUCUUUCUCGAUAUCAUAUUAAUCUUU", "Kd (nM)": 13.3}
{"binder": "Ic_S2_P5E.1_K5.1_C5.1_H5.1_A5.1_[T5C]_F5.1_[T8C]_[T9C]_[A10C]_T5.1 (ssRNA) RNA: UUUGAUUAAUAUGAUAUCGUUCUUUCUUGUACUACCCUUCUUUCUCGAUAUCAUAUUAAUCUUU", "Kd (nM)": 245}
{"binder": "UCUCUUUGUAAAUUGUCUCUU (ssRNA) [Ic_S1_P4E.1_K4.1_C4.1_H4.1_A4.1_[T5A]_F4.1_[A9G]_T4.1]", "Kd (nM)": 10.9}
